Molecular target: NA from influenza NC virus (Influenza A virus, UniProt Q7TG96)
Result Type: pIC50
pIC50 field: float, defined as -log10 of concentration (mol/L).

Asked: Look up pIC50 with NA from influenza NC virus (Influenza A virus, UniProt Q7TG96) for this compound: O=C(O)C1=CC(=C(c2ccc(O)c(C(=O)O)c2)c2ccc(O)c(C(=O)O)c2)C=CC1=O
Given back: 4.41

###

Test: in vitro
Details: pH 7.2
Result Type: CC50 at 48 h (µg/mL)
Give just the number in µg/mL; leave the unit off.

Asked: Field request: CC50 at 48 h | item: O=C(O)C1=CC(=C(c2ccc(O)c(C(=O)O)c2)c2ccc(O)c(C(=O)O)c2)C=CC1=O
Given back: 577

Entry source: paper PMC2792043
